Experiment description: total protein half-life in vivo (active degradation + dilution); higher = more stable protein
Assay setup: wild type E. coli NCM3722; growth: P-lim chemostat; doubling time 6 h
Outcome label depends on total protein half-life in vivo relative to 6 h: at/above gives true, below gives false.

{"columns": ["Chain sequence", "Classification"],
 "data": [
  ["MCGRFAQSQTREDYLALLAEDIERDIPYDPEPIGRYNVAPGTKVLLLSERDEHLHLDPVFWGYAPGWWDKPPLINARVETAATSRMFKPLWQHGRAICFADGWFEWKKEGDKKQPFFIYRADGQPIFMAAIGSTPFERGDEAEGFLIVTAAADQGLVDIHDRRPLVLSPEAAREWMRQEISGKEASEIAASGCVPANQFSWHPVSRAVGNVKNQGAELIQPV", "false"],
  ["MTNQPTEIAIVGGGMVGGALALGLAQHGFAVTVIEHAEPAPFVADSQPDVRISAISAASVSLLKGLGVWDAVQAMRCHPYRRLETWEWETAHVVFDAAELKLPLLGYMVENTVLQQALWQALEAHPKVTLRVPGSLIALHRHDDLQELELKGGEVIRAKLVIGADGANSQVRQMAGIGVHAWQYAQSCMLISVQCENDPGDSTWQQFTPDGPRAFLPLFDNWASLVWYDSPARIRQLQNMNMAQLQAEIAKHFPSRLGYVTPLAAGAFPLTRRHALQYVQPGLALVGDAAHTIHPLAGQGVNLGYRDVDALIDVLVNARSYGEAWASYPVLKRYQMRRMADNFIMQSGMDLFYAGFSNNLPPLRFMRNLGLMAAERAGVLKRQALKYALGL", "false"],
  ["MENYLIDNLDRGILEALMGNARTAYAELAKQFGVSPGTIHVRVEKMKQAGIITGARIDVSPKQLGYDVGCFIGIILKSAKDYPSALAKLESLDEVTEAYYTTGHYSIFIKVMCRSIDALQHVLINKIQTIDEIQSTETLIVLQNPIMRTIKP [P0ACI6]", "true"],
  ["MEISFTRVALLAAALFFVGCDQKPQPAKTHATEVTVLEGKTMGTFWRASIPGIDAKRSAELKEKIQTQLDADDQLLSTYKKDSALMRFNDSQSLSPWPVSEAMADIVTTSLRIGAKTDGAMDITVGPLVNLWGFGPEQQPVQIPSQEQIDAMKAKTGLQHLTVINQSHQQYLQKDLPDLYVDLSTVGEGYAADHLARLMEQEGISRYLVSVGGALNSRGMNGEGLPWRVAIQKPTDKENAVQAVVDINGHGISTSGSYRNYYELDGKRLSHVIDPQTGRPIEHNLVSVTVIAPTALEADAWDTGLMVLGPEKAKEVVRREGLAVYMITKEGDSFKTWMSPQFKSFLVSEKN [P0AB85]", "true"],
  ["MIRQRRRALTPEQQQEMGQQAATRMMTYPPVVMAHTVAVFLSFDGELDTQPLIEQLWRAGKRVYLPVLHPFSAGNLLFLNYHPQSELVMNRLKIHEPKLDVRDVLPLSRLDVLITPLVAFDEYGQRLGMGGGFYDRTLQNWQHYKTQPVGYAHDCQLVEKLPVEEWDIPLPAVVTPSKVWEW [P0AC28]", "false"],
  ["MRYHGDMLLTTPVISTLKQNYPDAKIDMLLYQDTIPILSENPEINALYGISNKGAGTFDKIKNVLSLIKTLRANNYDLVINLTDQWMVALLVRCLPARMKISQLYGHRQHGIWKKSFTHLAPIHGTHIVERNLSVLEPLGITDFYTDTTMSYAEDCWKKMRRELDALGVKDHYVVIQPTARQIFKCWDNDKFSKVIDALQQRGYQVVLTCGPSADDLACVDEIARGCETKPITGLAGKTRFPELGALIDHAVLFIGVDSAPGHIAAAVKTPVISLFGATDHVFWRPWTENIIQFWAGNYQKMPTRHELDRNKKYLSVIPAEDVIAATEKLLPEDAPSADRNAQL", "false"],
  ["MSEVEFSHEYWMRHALTLAKRAWDEREVPVGAVLVHNNRVIGEGWNRPIGRHDPTAHAEIMALRQGGLVMQNYRLIDATLYVTLEPCVMCAGAMIHSRIGRVVFGARDAKTGAAGSLMDVLHHPGMNHRVEITEGILADECAALLSDFFRMRRQEIKAQKKAQSSTD", "true"],
  ["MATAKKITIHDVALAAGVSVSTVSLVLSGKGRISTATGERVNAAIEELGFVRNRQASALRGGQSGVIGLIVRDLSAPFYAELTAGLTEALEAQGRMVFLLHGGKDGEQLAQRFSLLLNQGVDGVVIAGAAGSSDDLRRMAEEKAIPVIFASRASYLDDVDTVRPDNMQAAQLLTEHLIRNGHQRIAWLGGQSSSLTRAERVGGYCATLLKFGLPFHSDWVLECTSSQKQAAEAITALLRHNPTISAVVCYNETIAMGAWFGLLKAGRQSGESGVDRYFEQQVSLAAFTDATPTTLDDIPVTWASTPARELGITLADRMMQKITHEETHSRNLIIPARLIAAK", "false"]
]}
